Ref: ChEMBL document CHEMBL5154817

experiment.summary: Cytotoxicity against human MCF-10A cells incubated for 72 hrs by MTT assay
Type: toxicity, cell-based
Below, each entry is listed with its recorded IC50 at 72 h.

| input.smiles | value.unit | operator | IC50 at 72 h |
| --- | --- | --- | --- |
| CC(C)[C@H](NC(=O)c1cc(Cl)ccc1OCCNC(=O)OC(C)(C)C)C(=O)Nc1ccc([N+](=O)[O-])cc1Cl | nM | > | 60000 |
| CC(C)(C)OC(=O)NCCOc1ccc(Cl)cc1C(=O)N[C@@H](Cc1ccccc1)C(=O)Nc1ccc2c(c1)S(=O)(=O)C=C2 | nM | = | 1730 |
| NCCOc1ccc(Cl)cc1C(=O)N[C@@H](Cc1ccccc1)C(=O)Nc1ccc2c(c1)S(=O)(=O)C=C2 | nM | = | 2030 |
| O=C(N[C@@H](Cc1ccccc1)C(=O)Nc1cc(C(F)(F)F)cc(C(F)(F)F)c1)c1cc(Cl)ccc1OC1CCNCC1 | nM | = | 5900 |
| CC(C)[C@H](NC(=O)c1cc(Cl)ccc1OCCNC(=O)OC(C)(C)C)C(=O)Nc1ccc2c(c1)S(=O)(=O)C=C2 | nM | = | 2600 |
